src = ChEMBL document CHEMBL1201862

tested on: Hs-578T; assay: NCI tumour cell line growth inhibition, 48 h
Calls of active or inactive are those of the source. No stated cut-off is given here; in the data, active = GI50 up to about 1.1 µM and inactive = higher.
Assign a class; possible classes are active, inactive

Example results:
>  <MOLECULE>
C1=C\CCCCN2C[C@H]3CCCC/C=C\CCCCN4CC[C@@H]([C@H](CCCCCC/1)C4)[C@H](C3)C2

>  <TARGET_OR_SYSTEM>
Hs-578T

>  <CAT>
inactive

$$$$
>  <MOLECULE>
N#CC1=C(N)OC2=C(CCCc3ccc([N+](=O)[O-])cc32)C1c1ccccc1 (configuration not stated)

>  <TARGET_OR_SYSTEM>
Hs-578T

>  <CAT>
inactive

$$$$
>  <MOLECULE>
Cc1ccc(/N=C/C=C(\Nc2ccc(C)cc2)c2ccc3ccccc3c2)cc1

>  <TARGET_OR_SYSTEM>
Hs-578T

>  <CAT>
active

$$$$
>  <MOLECULE>
N#CC1(C#N)NC(c2ccsc2)C(C#N)(C#N)NC1c1ccsc1 (configuration not stated)

>  <TARGET_OR_SYSTEM>
Hs-578T

>  <CAT>
inactive

$$$$
>  <MOLECULE>
Cc1cccc(N(C(=O)Nc2ccc(Cl)c(Cl)c2)C2=NCC(C)S2)c1 (configuration not stated)

>  <TARGET_OR_SYSTEM>
Hs-578T

>  <CAT>
inactive

$$$$

Hi, do you know how CSC(=S)Nc1cccc(C)n1 came out in this test?
inactive

// param item: FC(F)(F)C1(c2ccccc2)SCc2nc3ccccc3n21 (configuration not stated) ; yields the recorded call
inactive

Lab log entry: CCOC(=O)CC(=O)NC1CC2CCC1(C)C2(C)C (configuration not stated) — outcome as called in the assay?
inactive

Check the results log: what was the call for O=c1[nH]c2nccnc2c2c([N+](=O)[O-])cccc12 ?
inactive

---

system: MCF7; experiment: NCI tumour cell line growth inhibition, 48 h
Activity calls are given as the source filed them. No stated cut-off is given here; in the data, active = GI50 up to about 1.1 µM and inactive = higher.
# GI50 annotations

>  <MOLECULE>
COP(=O)(OC)C(C)(C)NC(=O)NC(F)(F)F

>  <TARGET_OR_SYSTEM>
MCF7

>  <GI50>
> 100 µM (inactive)

$$$$
>  <MOLECULE>
COC(=O)c1cncc2c1CC1C3(C(=O)OC)C=NC(C4C(CO)=CCC43)C21C (stereo unspecified)

>  <TARGET_OR_SYSTEM>
MCF7

>  <GI50>
> 100 µM (inactive)

$$$$
>  <MOLECULE>
Cc1cc(C(F)(F)F)cc(-n2nc(NS(=O)(=O)c3cc(C)c(Cl)cc3S)nc2N)n1

>  <TARGET_OR_SYSTEM>
MCF7

>  <GI50>
45.1 µM (inactive)

$$$$
>  <MOLECULE>
CN1C=COC1N=C1CCCCC1 (stereo unspecified)

>  <TARGET_OR_SYSTEM>
MCF7

>  <GI50>
> 100 µM (inactive)

$$$$
>  <MOLECULE>
CC1=NC(=Cc2ccc([N+](=O)[O-])cc2)C(=O)N1n1c(-c2ccccc2)nc2ccccc2c1=O

>  <TARGET_OR_SYSTEM>
MCF7

>  <GI50>
29.1 µM (inactive)

$$$$

Name the recorded GI50 for O=C1/C(=C\c2cccc(Oc3ccccc3)c2)SC(c2ccccc2)N1c1cccc([N+](=O)[O-])c1 (stereo unspecified) .
28.2 µM (inactive)
